Test system: BEN
Experiment: relative viability (nuclei count vs DMSO), 5 days (fraction); higher = more cells survive
Conditions: first compound 0.8 µM
Assignment: determine reported relative viability for the given compounds.
One number for each entry.

>  <compound>
O=c1cc(-c2cccc3c2Sc2ccccc2S3)oc(N2CCOCC2)c1 + NC(=O)Nc1cc(-c2cccc(F)c2)sc1C(=O)N[C@H]1CCCNC1 [AZD7762] (partner 0.2 µM)

>  <relative viability>
0.647

$$$$
>  <compound>
O=c1cc(-c2cccc3c2Sc2ccccc2S3)oc(N2CCOCC2)c1 + Nc1nc2[nH]cc(CCc3ccc(C(=O)N[C@@H](CCC(=O)O)C(=O)O)cc3)c2c(=O)[nH]1 [Pemetrexed] (partner 0.2 µM)

>  <relative viability>
0.696

$$$$
>  <compound>
O=c1cc(-c2cccc3c2Sc2ccccc2S3)oc(N2CCOCC2)c1 + N=C(N)NC(=N)NCCc1ccccc1 [Phenformin] (partner 250 µM)

>  <relative viability>
0.248

$$$$
>  <compound>
COc1nc(C)cnc1NS(=O)(=O)c1cccnc1-c1ccc(-c2nnco2)cc1 [Zibotentan] + CS(=O)(=O)CCNCc1ccc(-c2ccc3ncnc(Nc4ccc(OCc5cccc(F)c5)c(Cl)c4)c3c2)o1 [Lapatinib] (partner 2 µM)

>  <relative viability>
0.68

$$$$

From here, focus on the item given below.
IN: Quote BEN relative viability for entry O=c1cc(-c2cccc3c2Sc2ccccc2S3)oc(N2CCOCC2)c1 + Cc1cc(Nc2cc(N3CCN(C)CC3)nc(Sc3ccc(NC(=O)C4CC4)cc3)n2)n[nH]1 [Tozasertib] (partner 0.1 µM) .
OUT: 0.423

* * *

System: NCI-H322M
Test: relative viability (nuclei count vs DMSO), 5 days (fraction); higher = more cells survive
Settings: first compound 0.8 µM
Mark T only when relative viability stays strictly below 0.6. Values equal to the cut-off are F.

IN: Strictly below 0.6 in relative viability? COc1nc(C)cnc1NS(=O)(=O)c1cccnc1-c1ccc(-c2nnco2)cc1 [Zibotentan] + CC(=O)c1c(C)c2cnc(Nc3ccc(N4CCNCC4)cn3)nc2n(C2CCCC2)c1=O [Palbociclib] (partner 0.5 µM)
OUT: T

IN: Strictly below 0.6 in relative viability? O=c1cc(-c2cccc3c2Sc2ccccc2S3)oc(N2CCOCC2)c1 + CC(C)C[C@H](NC(=O)[C@H](Cc1ccccc1)NC(=O)c1cnccn1)B(O)O [Bortezomib] (partner 0.002 µM)
OUT: F

IN: Strictly below 0.6 in relative viability? COc1nc(C)cnc1NS(=O)(=O)c1cccnc1-c1ccc(-c2nnco2)cc1 [Zibotentan] + CS(=O)(=O)CCNCc1ccc(-c2ccc3ncnc(Nc4ccc(OCc5cccc(F)c5)c(Cl)c4)c3c2)o1 [Lapatinib] (partner 2 µM)
OUT: T

IN: Strictly below 0.6 in relative viability? COc1nc(C)cnc1NS(=O)(=O)c1cccnc1-c1ccc(-c2nnco2)cc1 [Zibotentan] + CC1(C)CCC(c2ccc(Cl)cc2)=C(CN2CCN(c3ccc(C(=O)NS(=O)(=O)c4ccc(N[C@H](CCN5CCOCC5)CSc5ccccc5)c(S(=O)(=O)C(F)(F)F)c4)cc3)CC2)C1 [Navitoclax] (partner 0.5 µM)
OUT: F

IN: Strictly below 0.6 in relative viability? O=c1cc(-c2cccc3c2Sc2ccccc2S3)oc(N2CCOCC2)c1 + C[C@@H](Oc1cc(-c2cnn(C3CCNCC3)c2)cnc1N)c1c(Cl)ccc(F)c1Cl [Crizotinib] (partner 1 µM)
OUT: F

IN: Strictly below 0.6 in relative viability? COc1nc(C)cnc1NS(=O)(=O)c1cccnc1-c1ccc(-c2nnco2)cc1 [Zibotentan] + CC(=O)Nc1cccc(-n2c(=O)n(C3CC3)c(=O)c3c(Nc4ccc(I)cc4F)n(C)c(=O)c(C)c32)c1 [Trametinib] (partner 0.02 µM)
OUT: T

IN: Strictly below 0.6 in relative viability? COc1nc(C)cnc1NS(=O)(=O)c1cccnc1-c1ccc(-c2nnco2)cc1 [Zibotentan] + Cc1nc(NC(=O)N2CCC[C@H]2C(N)=O)sc1-c1ccnc(C(C)(C)C(F)(F)F)c1 [Alpelisib] (partner 2 µM)
OUT: F

IN: Strictly below 0.6 in relative viability? O=c1cc(-c2cccc3c2Sc2ccccc2S3)oc(N2CCOCC2)c1 + COc1cccc2cc(-c3nc([C@H]4CC[C@H](C(=O)O)CC4)n4ncnc(N)c34)[nH]c12 [OSI-027] (partner 0.5 µM)
OUT: F

IN: Strictly below 0.6 in relative viability? O=c1cc(-c2cccc3c2Sc2ccccc2S3)oc(N2CCOCC2)c1 + NC(=O)Nc1cc(-c2cccc(F)c2)sc1C(=O)N[C@H]1CCCNC1 [AZD7762] (partner 0.2 µM)
OUT: T

IN: Strictly below 0.6 in relative viability? COc1nc(C)cnc1NS(=O)(=O)c1cccnc1-c1ccc(-c2nnco2)cc1 [Zibotentan] + N=C(N)NC(=N)NCCc1ccccc1 [Phenformin] (partner 250 µM)
OUT: F

* * *

Test system: NCI-H441
Experiment: relative viability (nuclei count vs DMSO), 5 days (fraction); higher = more cells survive
Details: first compound 0.03162 µM
observation-type: relative viability
One number for each entry.

>  <molecule>
CCN(CC)CCCCNc1ncc2cc(-c3cc(OC)cc(OC)c3)c(NC(=O)NC(C)(C)C)nc2n1 + C[C@]1(O)C[C@@H](c2nc(-c3ccc4ccc(-c5ccccc5)nc4c3)c3c(N)nccn32)C1 [Linsitinib] (partner 1 µM)

>  <numeric-value>
0.441

$$$$
>  <molecule>
O=c1cc(N2CCOCC2)oc2c(-c3cccc4c3sc3ccccc34)cccc12 + C[C@@H](Oc1cc(-c2cnn(C3CCNCC3)c2)cnc1N)c1c(Cl)ccc(F)c1Cl [Crizotinib] (partner 1 µM)

>  <numeric-value>
0.785

$$$$
>  <molecule>
CCN(CC)CCCCNc1ncc2cc(-c3cc(OC)cc(OC)c3)c(NC(=O)NC(C)(C)C)nc2n1 + Nc1nc2[nH]cc(CCc3ccc(C(=O)N[C@@H](CCC(=O)O)C(=O)O)cc3)c2c(=O)[nH]1 [Pemetrexed] (partner 0.2 µM)

>  <numeric-value>
0.232

$$$$

From here, focus on the item given below.
IN: Let me know recorded relative viability for O=c1cc(N2CCOCC2)oc2c(-c3cccc4c3sc3ccccc34)cccc12 + O=C(c1cc(Cc2n[nH]c(=O)c3ccccc23)ccc1F)N1CCN(C(=O)C2CC2)CC1 [Olaparib] (partner 8 µM) , thanks.
OUT: 0.48

* * *

Tested on: LCLC-103H
Experiment: relative viability (nuclei count vs DMSO), 5 days (fraction); higher = more cells survive
Conditions: first compound 0.01 µM
Mark TRUE only when relative viability stays strictly below 0.8. Values equal to the cut-off are FALSE.

Some entries whose results are on file:
>  <compound>
CCN(CC)CCCCNc1ncc2cc(-c3cc(OC)cc(OC)c3)c(NC(=O)NC(C)(C)C)nc2n1 + C[C@@H](Oc1cc(-c2cnn(C3CCNCC3)c2)cnc1N)c1c(Cl)ccc(F)c1Cl [Crizotinib] (partner 1 µM)

>  <category-label>
FALSE

$$$$
>  <compound>
O=c1cc(N2CCOCC2)oc2c(-c3cccc4c3sc3ccccc34)cccc12 + Nc1nc2[nH]cc(CCc3ccc(C(=O)N[C@@H](CCC(=O)O)C(=O)O)cc3)c2c(=O)[nH]1 [Pemetrexed] (partner 0.2 µM)

>  <category-label>
TRUE

$$$$
>  <compound>
CCN(CC)CCCCNc1ncc2cc(-c3cc(OC)cc(OC)c3)c(NC(=O)NC(C)(C)C)nc2n1 + O=C(CCCCCCC(=O)Nc1ccccc1)NO [Vorinostat] (partner 1 µM)

>  <category-label>
TRUE

$$$$
>  <compound>
O=c1cc(N2CCOCC2)oc2c(-c3cccc4c3sc3ccccc34)cccc12 + COc1cccc2cc(-c3nc([C@H]4CC[C@H](C(=O)O)CC4)n4ncnc(N)c34)[nH]c12 [OSI-027] (partner 0.5 µM)

>  <category-label>
TRUE

$$$$
>  <compound>
CCN(CC)CCCCNc1ncc2cc(-c3cc(OC)cc(OC)c3)c(NC(=O)NC(C)(C)C)nc2n1 + CC(=O)c1c(C)c2cnc(Nc3ccc(N4CCNCC4)cn3)nc2n(C2CCCC2)c1=O [Palbociclib] (partner 0.5 µM)

>  <category-label>
TRUE

$$$$

IN: Strictly below 0.8 in relative viability? CCN(CC)CCCCNc1ncc2cc(-c3cc(OC)cc(OC)c3)c(NC(=O)NC(C)(C)C)nc2n1 + N=C(N)NC(=N)NCCc1ccccc1 [Phenformin] (partner 250 µM)
OUT: TRUE

IN: Strictly below 0.8 in relative viability? CCN(CC)CCCCNc1ncc2cc(-c3cc(OC)cc(OC)c3)c(NC(=O)NC(C)(C)C)nc2n1 + CCNC(=O)c1noc(-c2cc(C(C)C)c(O)cc2O)c1-c1ccc(CN2CCOCC2)cc1 [Luminespib] (partner 0.01 µM)
OUT: FALSE

IN: Strictly below 0.8 in relative viability? CCN(CC)CCCCNc1ncc2cc(-c3cc(OC)cc(OC)c3)c(NC(=O)NC(C)(C)C)nc2n1 + COc1cc2c(Oc3ccc(NC(=O)C4(C(=O)Nc5ccc(F)cc5)CC4)cc3F)ccnc2cc1OCCCN1CCOCC1 [Foretinib] (partner 0.25 µM)
OUT: FALSE

IN: Strictly below 0.8 in relative viability? O=c1cc(N2CCOCC2)oc2c(-c3cccc4c3sc3ccccc34)cccc12 + Cc1nc(Nc2ncc(C(=O)Nc3c(C)cccc3Cl)s2)cc(N2CCN(CCO)CC2)n1 [Dasatinib] (partner 0.075 µM)
OUT: TRUE
